FYI, the data here is from PubChem BioAssay.

For each of the compounds below, state its z-score.
- targetOfAssay: Homeobox protein Hox-A13 (Mus musculus) (UniProt Q62424)
- Sequence (Q62424 whole entry, looked up): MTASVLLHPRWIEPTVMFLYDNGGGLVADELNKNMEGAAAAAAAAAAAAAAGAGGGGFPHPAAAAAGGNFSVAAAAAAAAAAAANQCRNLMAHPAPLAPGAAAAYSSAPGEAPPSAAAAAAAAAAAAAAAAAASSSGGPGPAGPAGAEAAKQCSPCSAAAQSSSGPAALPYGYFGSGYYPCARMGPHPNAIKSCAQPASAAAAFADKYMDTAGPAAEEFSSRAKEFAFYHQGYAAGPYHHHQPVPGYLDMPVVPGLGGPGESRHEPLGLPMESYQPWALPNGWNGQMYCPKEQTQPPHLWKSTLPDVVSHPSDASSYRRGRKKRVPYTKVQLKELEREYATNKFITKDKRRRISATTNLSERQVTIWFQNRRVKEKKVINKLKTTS
- measurementNotes: inhibitors of HoxA13-DNA binding, primary screen, biochemical, fluorescence polarization, labeled oligonucleotide (AID 1185)
- assayConditions: 15 min, higher = more signal, called active from +8 up or from −8 down
# print the numeric value only

IN: Using the record for `NCCCCCNC(=O)[C@H]1C[C@H]2C(=O)NCC(=O)N2[C@H]1c1ccc(O)cc1` , report its z-score.
OUT: -0.587

IN: Can you look up the measured z-score of `[N-]=[N+]=NCc1ccccc1C[C@]1(C(=O)NCc2ccccc2)N=C(c2ccc(OCCCO)cc2)O[C@H]1c1ccccc1` for me?
OUT: 1.43

IN: For `C=C(C1=CCN(S(=O)(=O)c2ccc(C)cc2)C1)[C@@H](OC(C)=O)[C@@H]1CCCN1S(=O)(=O)c1ccccc1[N+](=O)[O-]` , what is its reported z-score?
OUT: -3.62

IN: Could you share which z-score value was measured for `CCCNC(=O)[C@@]1(Sc2ccc(C)cc2)CC(=O)N(Cc2cc(C(F)(F)F)cc(C(F)(F)F)c2)[C@@H]1c1ccc(CO)cc1I` ?
OUT: -2.86

IN: Look up z-score: C=CCC(OC(C)=O)[C@@H]1[C@@H](N(Cc2ccc(-c3ccccc3)cc2)C(=O)c2ccc(-c3ccccc3)cc2)c2cc(OCCCO)ccc2N1C(=O)c1ccc(-c2ccccc2)cc1 (stereo partly drawn)
OUT: -0.513

IN: What does the data say about its z-score? Entry: `COc1ccc(CCNC(=O)[C@@]2(Sc3ccc(C)cc3)CC(=O)N(Cc3ccccc3)[C@@H]2c2ccc(CO)cc2I)cc1`
OUT: -1.1

IN: // lookup z-score for `C=CCN1C(=O)[C@@]2(O[C@@H](CCO)[C@H]([Si](C)(C)c3ccc(OC)cc3)[C@H]2C)c2cc(N(C=O)c3ccccc3)ccc21`
OUT: -3.62

IN: Which value of z-score has been reported for `C=CCN1C(=O)[C@]2(O[C@H](CCn3cc([C@H](O)c4ccccc4)nn3)[C@@H]([Si](C)(C)c3ccc(OC)cc3)[C@@H]2C)c2cc(N3CCOC3=O)ccc21` in the records?
OUT: -4.64

IN: Recorded z-score of `CC(C)(C)OC(=O)CC[C@@]12N=C(c3ccc(OCCCO)cc3)O[C@@H]1c1ccccc1CN(Cc1ccccc1)C2=O` , please.
OUT: -1.33

IN: # query: z-score of entry `C=C(COC)C(=O)CC[C@@H](OC(=O)c1ccccc1-c1ccccc1C(=O)O)c1cccc(OCCO)c1`
OUT: -4.82

IN: Any idea what z-score was measured for `O=C(NO)[C@]1(Cc2ccccc2)N=C(c2ccc(OCCCO)cc2)O[C@@H]1c1ccccc1` ?
OUT: -5.15

IN: // query z-score value for entry `O=C1N(CCS(=O)(=O)c2ccccc2)Cc2ccccc2[C@@H]2OC(c3ccc(OCCCO)cc3)=N[C@]12Cc1ccccc1`
OUT: 2.39

IN: What z-score value was documented for this compound, `COCCCNC(=O)[C@@]1(Cc2ccccc2CN=[N+]=[N-])COC(c2ccc(OCCCO)cc2)=N1` ?
OUT: -4.83

IN: I have this compound here, `COC(=O)c1c2oc(c1C(=O)OC)C(=O)N[C@@H](C(C)C)Cn1nncc1C1(CCCCC1)NC(=O)N[C@H](CO)CC2` , and I need its recorded z-score.
OUT: -1.72

IN: What value of z-score has been reported for the following compound? CC(C)C(CO)N1C(=O)[C@@H]2[C@H]3C(=O)OCC=C[C@H]3OC23C=CCN(Cc2ccccc2)C(=O)[C@@H]13 (stereo partly drawn)
OUT: -2.93

IN: Which z-score is reported for this compound? `[N-]=[N+]=NCc1ccccc1C[C@@]1(C(=O)NCc2ccccc2)N=C(c2ccc(OCCCO)cc2)O[C@@H]1c1ccccc1`
OUT: 0.77

IN: Form field: reported z-score of `COCCOC(=O)N1C(=O)[C@@]2(c3cc(C#CC4(O)CCCCCC4)ccc31)[C@H](C(=O)NC[C@H](O)c1ccccc1)[C@H]1C(=O)O[C@H](c3ccccc3)[C@H](c3ccccc3)N1[C@@H]2c1ccccc1OCCO`
OUT: -0.371

IN: Entry under review: CC(CO)N1C(=O)[C@@H]2C3C(=O)OCCC/C=C\[C@H]3OC23C=CCN(Cc2ccccc2)C(=O)[C@@H]13 (stereo partly drawn) . Reported z-score?
OUT: -5.46

IN: Consider the compound `CC(C)[Si](C#C[Si](C(C)C)(C(C)C)C(C)C)(O[C@H](C)c1cn([C@H](C)c2ccccc2)nn1)C(C)C` and give its measured z-score.
OUT: -0.0303

IN: What does the data say about its z-score? Entry: `CC(C)(C)OC(=O)CC[C@@]1(C(=O)N2CCOCC2)N=C(c2ccc(OCCCO)cc2)O[C@@H]1c1ccccc1`
OUT: -4.03

IN: Entry `C=CCNC(=O)[C@H]1[C@@H]2C(=O)O[C@@H](c3ccccc3)[C@@H](c3ccccc3)N2[C@@H](c2ccccc2OCCO)[C@]12C(=O)N(C(=O)OCCOC)c1ccc(C#CCCO)cc12` : reported z-score = ?
OUT: -1.2

IN: Query: z-score; subject: `[N-]=[N+]=Nc1ccccc1[C@H]1OC(c2ccc(OCCCO)cc2)=N[C@@]1(Cc1ccccc1)C(N)=O`
OUT: -3.95

IN: Can you look up the measured z-score of `COCCOC(=O)N1C(=O)[C@@]2(c3cc(C#CC4(O)CCCCCC4)ccc31)[C@H](c1ccccc1OCCO)N1[C@H](c3ccccc3)[C@H](c3ccccc3)OC(=O)[C@H]1[C@@H]2C(=O)Nc1nc2ccccc2s1` for me?
OUT: 4.08

IN: Field request: z-score | item: `CC(C)N1C(=O)c2ccccc2[C@@H](C(=O)NCc2ccccc2)[C@@H]1c1ccc(CO)cc1`
OUT: -0.468

IN: Item CN1C=C(C(=O)OCCS(C)(=O)=O)C(C(=O)OCCS(C)(=O)=O)=CC(CCCO)=CC1c1cccs1 (stereo not drawn) has what recorded z-score?
OUT: -5.5

IN: Which z-score reading was recorded for the compound `C=C(COC)/C(=C/C[C@H](OC(C)=O)c1cccc(OCCO)c1)c1cc(C(=O)OC)ccc1OC` ?
OUT: -2.39

IN: Can you look up the measured z-score of `COc1ccc(C(=O)Nc2cccc(CN3C(=O)[C@@]4(O[C@@H](CCO)[C@H]([Si](C)(C)c5ccc(OC)cc5)[C@H]4C)c4ccccc43)c2)cc1` for me?
OUT: -2.09

IN: Entry under review: `CC(C)C(=C=CC[C@H](O)c1ccc(OCCO)cc1)C[C@H](O)COCc1ccccc1` . Reported z-score?
OUT: -4.06

* * *

Kindly state composite z-score for each of the entries shown.
- measurementNotes: small-molecule binders of probe aInhba, primary screen, biochemical, small-molecule microarray, 635/667 nm fluorescence (AID 1148);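 further: score merges 667nm spot fluorescence with signal-to-noise for antibody binding to printed compounds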
- assayConditions: higher = more signal
Answer with the value's number alone.

IN: What does the data say about its composite z-score? Entry: `Cc1ccc(S[C@]2(C(=O)NC3CC3)CC(=O)N(Cc3ccccc3C(F)(F)F)[C@@H]2c2ccc(CO)cc2I)cc1`
OUT: -0.0523

IN: For the compound `CCCNC(=O)[C@@H]1c2ccccc2C(=O)N(Cc2cc(C(F)(F)F)cc(C(F)(F)F)c2)[C@H]1c1ccc(CO)cc1` , what composite z-score is on record?
OUT: -0.157

IN: Entry CC(C)CCC[C@@H](C)[C@H]1CC[C@@]2(C)C3=C(CC[C@]12C)[C@@]1(C)CC[C@H](OC(=O)CCl)C(C)(C)C1CC3 (some centres undefined) : reported composite z-score = ?
OUT: -0.251

IN: Param item = `CN(C)CCCC[C@@H]1NC(=O)[C@@H]2C[C@H](C(=O)NCCCCCNC(=O)CS)[C@H](c3cccc(OCCO)c3)N2C1=O` ; retrieve measured composite z-score.
OUT: 0.0869

* * *

For each entry below, report its composite z-score value.
- targetOfAssay: Neurogenic locus notch homolog protein 3 (Homo sapiens)
- measurementNotes: NOTCH3 binders on small-molecule microarray, primary screen, biochemical, 635/667 nm fluorescence (AID 1096)
- assayConditions: NOTCH3 binding, 635 nm fluorescence, higher = more signal
The reply should be a number, written without any unit.

IN: For the compound shown here, C=CCC(OC(C)=O)[C@@H]1[C@@H](N(Cc2cc3ccccc3o2)C(=O)c2ccc(-c3ccccc3)cc2)c2cc(OCCCO)ccc2N1C(=O)c1ccc(-c2ccccc2)cc1 (stereo partly specified) , give the reported composite z-score.
OUT: -0.402

IN: Recorded composite z-score for CC(C)N1CC=CC23O[C@@H]4/C=C\CCCOC(=O)C4[C@H]2C(=O)N(CCCO)[C@@H]3C1=O (stereo partly specified) , please?
OUT: 0.0751

IN: What value of composite z-score has been recorded for this entry: `C=CCN1C(=O)[C@@]2(O[C@@H](CCO)[C@H]([Si](C)(C)c3ccc(OC)cc3)[C@H]2C)c2cc(N(C=O)c3ccccc3)ccc21`
OUT: 0.259

IN: Recorded composite z-score for `[N-]=[N+]=NCc1ccccc1C[C@@]1(C(=O)NCc2ccccc2)N=C(c2ccc(OCCCO)cc2)O[C@@H]1c1ccccc1` , please?
OUT: -0.0209

IN: State the recorded composite z-score for this entry: `C=CCN1C(=O)[C@@]2(O[C@@H](CCn3cc(CCO)nn3)[C@H]([Si](C)(C)c3ccc(OC)cc3)[C@H]2C)c2cc(N3C(=O)c4cccc5cccc3c45)ccc21`
OUT: 1.07

IN: What value of measured composite z-score is listed for `CO[C@H]1O[C@H](CO)[C@@H](OC(=O)Nc2ccccc2)[C@H](OC(=O)Nc2ccccc2-c2ccccc2)[C@H]1OC(=O)Nc1ccccc1-c1ccccc1` ?
OUT: 0.965
